# Tested on: normal primary NK cells, pool 1 (3 donors) (IL-2 2.5 ng/mL)
# assay overview: drug sensitivity score (DSS) (DSS units); higher = more sensitive; extreme values may be limits of the assay
# stated conditions: 72 h
metric: drug sensitivity score

- CC(=O)O[C@@]12CO[C@@H]1C[C@H](O)[C@@]1(C)C(=O)[C@H](O)C3=C(C)[C@@H](OC(=O)[C@H](O)[C@@H](NC(=O)OC(C)(C)C)c4ccccc4)C[C@@](O)([C@@H](OC(=O)c4ccccc4)[C@H]21)C3(C)C [Docetaxel] (max concentration tested 1000 nM): 0
- Cc1ccc(F)c(NC(=O)Nc2ccc(-c3cccc4[nH]nc(N)c34)cc2)c1 [Linifanib] (max concentration tested 1000 nM): 0.05
- Cn1cc(-c2cnn3c(N)c(Br)c([C@@H]4CCCNC4)nc23)cn1 [MK-8776] (max concentration tested 2500 nM): 2.16
- C[C@@]1(C(=O)Nc2ccc(F)nc2)CCCN1c1nc(Nc2cc(C3CC3)n[nH]2)c2cccn2n1 (max concentration tested 10000 nM): 0.16
- O=P1(N(CCCl)CCCl)NCCCO1 (stereo unspecified) [Cyclophosphamide] (max concentration tested 40000 nM): 1.52
- CCc1cncnc1N1CCN(Cc2nc3ccc(C(F)(F)F)cc3[nH]2)CC1 (max concentration tested 10000 nM): 5.45
